assay: Inhibition of Escherichia coli recombinant DXR using DXP as substrate and MgCl2 as cofactor preincubated for 10 mins
Label rule, in plain words: pKi of 5 and up is MET, under 5 is NOT MET.

compound=O=P(O)(O)CCc1ccccn1 label_class="NOT MET"
compound=O=P(O)(O)Cc1ccc(-c2ccc(F)cc2)cn1 label_class=MET
compound=O=P(O)(O)Cc1ccccc1 label_class="NOT MET"
compound=O=P(O)(O)Cc1ccncc1 label_class=MET
compound=O=P(O)(O)Cc1cccnc1 label_class=MET
compound=O=P(O)(O)Cc1ccc(-c2ccccc2)cn1 label_class=MET
compound=O=S(=O)(O)Cc1ccc(-c2ccccc2)cn1 label_class="NOT MET"
compound=O=P(O)(O)CCc1ccccc1O label_class="NOT MET"
compound=O=P(O)(O)Cc1ccc(O)cn1 label_class=MET
compound=O=P(O)(O)Cc1ccc(-c2ccc(Cl)cc2)cn1 label_class=MET
compound=O=P(O)(O)Cc1cc(-c2ccc(F)cc2)ccn1 label_class=MET
compound=Cc1ccc(-c2ccc(CP(=O)(O)O)nc2)cc1 label_class=MET
compound=O=P(O)(O)c1ccccn1 label_class="NOT MET"
compound=O=P(O)(O)Cc1ccncn1 label_class=MET
compound=O=C(Cc1ccc(-c2ccccc2)cn1)NO label_class="NOT MET"
compound=O=C(O)Cc1ccncc1 label_class="NOT MET"
compound=O=c1cccc(CCP(=O)(O)O)[nH]1 label_class="NOT MET"
compound=O=P(O)(O)Cc1cccc(-c2ccccc2)n1 label_class=MET
compound="O=CN(O)CCC(c1ccc(Cl)c(Cl)c1)P(=O)(O)O (stereo not drawn)" label_class=MET
compound=CC(=O)N(O)CCCP(=O)(O)O label_class=MET
compound=O=P(O)(O)Cc1ccc(Br)cn1 label_class=MET

###

Target: 1-deoxy-D-xylulose 5-phosphate reductoisomerase (Mycobacterium tuberculosis) (UniProt P9WNS1)
Sequence (whole entry): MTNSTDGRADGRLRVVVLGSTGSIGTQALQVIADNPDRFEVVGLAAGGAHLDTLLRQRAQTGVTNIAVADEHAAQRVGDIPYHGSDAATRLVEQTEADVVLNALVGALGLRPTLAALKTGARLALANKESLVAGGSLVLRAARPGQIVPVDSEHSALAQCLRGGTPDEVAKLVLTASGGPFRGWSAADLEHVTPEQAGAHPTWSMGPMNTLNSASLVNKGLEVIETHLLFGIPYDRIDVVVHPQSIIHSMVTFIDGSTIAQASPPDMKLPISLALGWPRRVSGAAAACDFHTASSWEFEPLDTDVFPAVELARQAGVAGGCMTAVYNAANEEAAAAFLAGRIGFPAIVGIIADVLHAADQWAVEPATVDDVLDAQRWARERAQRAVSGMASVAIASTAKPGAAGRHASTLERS
Assay: Inhibition of Mycobacterium tuberculosis recombinant DXR expressed in Escherichia coli BL21 (DE3) using DXP as substrate and MgCl2 as cofactor at 100 uM preincubated for 10 mins
The source made the active and inactive calls. The calls are words filed in the database; no cut-off is given here.
QUANTITY NAME: inhibition

chemical_smiles=O=c1ccc(CP(=O)(O)O)cn1O assay_result=inactive
chemical_smiles=O=P(O)(O)CCc1ccccc1O assay_result=inactive
chemical_smiles=Cc1ccc(-c2ccc(CP(=O)(O)O)nc2)cc1 assay_result=inactive

###

assay: Inhibition of Escherichia coli recombinant DXR using DXP as substrate and MgCl2 as cofactor preincubated for 10 mins
QUANTITY NAME: pKi

compound=O=P(O)(O)Cc1ccc(-c2ccc3ccccc3c2)cn1 quantity_name=pKi rel== assay_result=4.86
compound=O=P(O)(O)Cc1ccc(OCc2ccccc2)cn1 quantity_name=pKi rel== assay_result=3.52
compound=O=C(O)Cc1cccnc1 quantity_name=pKi rel=< assay_result=3.52
compound=O=P(O)(O)CCc1ccccc1 quantity_name=pKi rel== assay_result=3.52
compound=O=C(NO)c1ccccn1 quantity_name=pKi rel=< assay_result=3.52
compound=O=c1ccc(CP(=O)(O)O)cn1O quantity_name=pKi rel== assay_result=3.52
compound=O=P(O)(O)Cc1cc(Br)ccn1 quantity_name=pKi rel== assay_result=5.46
compound="O=C(O)c1ccccn1 [2-PICOLINIC ACID]" quantity_name=pKi rel== assay_result=3.52

###

assay: Inhibition of DXR
QUANTITY NAME: IC50 (µM)

chemical_smiles=O=P(O)(O)C(Nc1nccc2ccccc12)P(=O)(O)O quantity_name=IC50 assay_result=4
chemical_smiles=O=P(O)(O)C(Nc1ccc(Cl)cn1)P(=O)(O)O quantity_name=IC50 assay_result=7

###

assay: Inhibition of Escherichia coli recombinant DXR using DXP as substrate and MgCl2 as cofactor preincubated for 10 mins
Recorded pKi by entry
QUANTITY NAME: pKi

molecule=O=P(O)(O)Cc1ccccn1 rel== assay_result=5.64
molecule=O=P(O)(O)CCCc1ccccn1 rel== assay_result=5.02
molecule="CC(=O)N(O)CCC(c1ccc(Cl)c(Cl)c1)P(=O)(O)O (racemic)" rel== assay_result=7.44
molecule=O=P(O)(O)Cc1cccc(O)c1O rel== assay_result=3.52
molecule=O=P(O)(O)Cc1cccc(Br)n1 rel== assay_result=5.46
molecule=O=C(O)Cc1ccc(-c2ccccc2)cn1 rel=< assay_result=3.52
molecule=O=C(O)c1ccc(-c2ccccc2)cn1 rel=< assay_result=3.52
molecule=O=P(O)(O)Cc1cc(-c2ccccc2)ccn1 rel== assay_result=5.96
molecule=O=P(O)(O)Cc1ccc(Cl)c(Cl)c1 rel== assay_result=3.52
molecule=COc1cccc(-c2ccc(CP(=O)(O)O)nc2)c1 rel== assay_result=5.46
molecule=O=C(O)Cc1ccccn1 rel== assay_result=3.52
molecule=O=C(Cc1ccccn1)NO rel== assay_result=3.52
molecule=O=P(O)(O)c1ccccc1 rel== assay_result=3.52

###

Recorded Ki by entry
Molecular target: 1-deoxy-D-xylulose 5-phosphate reductoisomerase (Mycobacterium tuberculosis, UniProt P9WNS1)
Sequence (P9WNS1 whole entry): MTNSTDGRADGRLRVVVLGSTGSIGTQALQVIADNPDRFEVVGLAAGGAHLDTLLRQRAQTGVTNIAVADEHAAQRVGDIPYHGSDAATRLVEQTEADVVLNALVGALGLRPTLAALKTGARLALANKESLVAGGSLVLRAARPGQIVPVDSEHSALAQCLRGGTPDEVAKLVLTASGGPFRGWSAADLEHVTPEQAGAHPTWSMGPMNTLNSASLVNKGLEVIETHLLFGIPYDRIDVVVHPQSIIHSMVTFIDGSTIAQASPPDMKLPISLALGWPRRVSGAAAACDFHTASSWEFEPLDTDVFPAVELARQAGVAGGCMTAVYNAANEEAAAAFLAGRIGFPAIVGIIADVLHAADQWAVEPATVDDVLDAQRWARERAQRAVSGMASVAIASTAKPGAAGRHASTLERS
Experiment: Inhibition of Mycobacterium tuberculosis recombinant DXR expressed in Escherichia coli BL21 (DE3) using DXP as substrate and MgCl2 as cofactor preincubated for 10 mins
QUANTITY NAME: Ki

molecule=O=P(O)(O)Cc1ccncc1 quantity_name=Ki assay_result="6.8 µM"
molecule=O=P(O)(O)Cc1ccc(-c2ccc(F)cc2)cn1 quantity_name=Ki assay_result="50.7 µM"
molecule=O=P(O)(O)Cc1cc(-c2ccccc2)ccn1 quantity_name=Ki assay_result="6.9 µM"
molecule=O=P(O)(O)Cc1ccc2ccccc2n1 quantity_name=Ki assay_result="6.9 µM"
molecule=O=P(O)(O)Cc1ccc(Br)cn1 quantity_name=Ki assay_result="45.2 µM"
molecule="CC(=O)N(O)CCC(c1ccc(Cl)c(Cl)c1)P(=O)(O)O (racemic)" quantity_name=Ki assay_result="1.5 µM"
molecule=O=P(O)(O)Cc1ccc(-c2ccccc2)cn1 quantity_name=Ki assay_result="3.2 µM"
molecule="O=c1ccc(-c2ccccc2)cn1O [1-HYDROXY-5-PHENYLPYRIDIN-2(1H)-ONE]" quantity_name=Ki assay_result="21.8 µM"
molecule=O=P(O)(O)Cc1ccncn1 quantity_name=Ki assay_result="12.4 µM"
molecule=CC(=O)N(O)CCCP(=O)(O)O quantity_name=Ki assay_result="0.13 µM"
molecule="O=CN(O)CCC(c1ccc(Cl)c(Cl)c1)P(=O)(O)O (centres undefined)" quantity_name=Ki assay_result="1.2 µM"
molecule=O=P(O)(O)Cc1cc(Br)ccn1 quantity_name=Ki assay_result="32.7 µM"
molecule=O=P(O)(O)Cc1ccc(O)cn1 quantity_name=Ki assay_result="17.3 µM"
molecule=O=P(O)(O)Cc1ccccn1 quantity_name=Ki assay_result="1.6 µM"
